- System: Wolbachia pipientis
- experimental-details: Anti-Wolbachia Cell-Based Screen
- Type: functional
- Parameters: scale not given: in the data most compounds retested in dose-response had high values
- condition-summary: 5 µM
The whole screen tested about 48,000 compounds, of which about 13,000 (27%) showed an effect of 50% or more. This is one part of the list.
Please respond with reported Percent Effect for every item in the list.
One number for each entry, in %.

Worked cases, answers included:
| molecule | units-symbol | value-observed |
| --- | --- | --- |
| CC(C)N(Cc1ccc(C#N)cc1)C(=O)Nc1ccccn1 | % | 7.153 |
| CC(Cc1cnccn1)NC(=O)c1cccc(CC2CCNCC2)c1 (stereo not drawn) | % | -6.406 |
| CS(=O)(=O)N1CCC(N2CCCC2c2ccccn2)CC1 (stereo not drawn) | % | -15.97 |

// each listed molecule needs a value for Percent Effect
1. COc1ccc(-c2noc(CN3CCc4cncnc4C3)n2)cc1
2. Cn1c2c(c(=O)n1C)CN(C(=O)c1ccco1)CCC2
3. Cn1cc(CN2CCC(CCC(=O)NCc3ccc(F)cc3)CC2)cn1
4. CC(C)c1nc2c(n1C)CCN(CCCc1nc3ccccc3o1)C2

1. -16.15
2. 0.5105
3. -6.777
4. -2.699

Every entry's value here was drawn from ChEMBL document CHEMBL3988442.
